Each recorded value in this set is attributed to ChEMBL document CHEMBL2034824.

test system: Liver microsomes; assay: Intrinsic clearance in rat liver microsomes; assay type: ADME, Microsome
MEASURED METRIC: CLH (mL/min/g)

Reference set (2 entries):
What value of CLH on Liver microsomes does CCC(CC)[C@@H]1C(=O)N[C@H](C2Cc3ccccc3C2)C(=O)N1[C@@H](C(=O)N1CCOCC1)c1ccc(C)nc1C have?
1

Would you mind doing Cc1ccc([C@H](C(=O)N(C)C)N2C(=O)[C@@H](C3Cc4ccccc4C3)NC(=O)[C@H]2CC(C)C)cn1 as well?
3

[1] CC[C@H](C)[C@@H]1C(=O)N[C@H](C2Cc3ccccc3C2)C(=O)N1[C@@H](C(=O)NC)c1cc(C)cnc1C
[2] CCC(CC)[C@@H]1C(=O)N[C@H](C2Cc3ccccc3C2)C(=O)N1[C@@H](C(=O)N(C)C)c1ccc(C)nc1C
[3] CCC(CC)[C@@H]1C(=O)N[C@H](C2Cc3ccccc3C2)C(=O)N1[C@@H](C(=O)NC)c1ccc(C)nc1C
Task for the reader: rank each entry by its CLH, from the minimum upward. Answer by listing the labels in the order asked for.
1, 3, 2

====

test: AUC in dog at 0.6 mg/kg, po; format: ADME, organism-based, Canis lupus familiaris; design: dose 0.6 mg/kg, route oral; settings: plasma
MEASURED METRIC: AUC (ng·h/mL)

Use these answered entries as a reference point.
// lookup AUC for CC[C@H](C)[C@@H]1C(=O)N[C@H](C2Cc3ccccc3C2)C(=O)N1[C@@H](C(=O)N1CCOCC1)c1ccc(C)nc1
55

How about CC[C@H](C)[C@@H]1C(=O)N[C@H](C2Cc3ccccc3C2)C(=O)N1[C@@H](C(=O)NC)c1ccc(C)nc1C ?
58

Please do the same for CC[C@H](C)[C@@H]1C(=O)N[C@H](C2Cc3ccccc3C2)C(=O)N1[C@@H](C(=O)N(C)C)c1ccc(C)[n+]([O-])c1 as well.
73

CCC(CC)[C@@H]1C(=O)N[C@H](C2Cc3ccccc3C2)C(=O)N1[C@@H](C(=O)N(C)C)c1ccc(C)nc1 , same question.
255

[a] CC[C@H](C)[C@@H]1C(=O)N[C@H](C2Cc3ccccc3C2)C(=O)N1[C@@H](C(=O)N(C)C)c1ccc(C)nc1C
[b] CC(C)C[C@@H]1C(=O)N[C@H](C2Cc3ccccc3C2)C(=O)N1[C@@H](C(=O)N(C)C)c1ccc(F)cc1F
[c] COc1ccc([C@H](C(=O)N(C)C)N2C(=O)[C@@H](C3Cc4ccccc4C3)NC(=O)[C@H]2CC(C)C)cn1
I would appreciate it if you could sort these 3 compounds by AUC, starting from the smallest number. Returns: the labels listed in the requested order.
c, a, b
(c: 158 ng·h/mL, a: 305 ng·h/mL, b: 770 ng·h/mL)

====

assay: Oral bioavailability in cynomolgus monkey at 2 mg/kg; assay type: ADME, organism-based, Macaca fascicularis; conditions: in vivo
MEASURED METRIC: bioavailability (%)

What value of bioavailability has been reported for the following compound? CC[C@H](C)[C@@H]1C(=O)N[C@H](C2Cc3ccccc3C2)C(=O)N1[C@@H](C(=O)N1CCOCC1)c1ccc(C)nc1C
7

Now give it for CC(C)C[C@@H]1C(=O)N[C@H](C2Cc3ccccc3C2)C(=O)N1[C@@H](C(=O)N(C)C)c1ccc(F)cc1F too.
1.5

And then CCC(CC)[C@@H]1C(=O)N[C@H](C2Cc3ccccc3C2)C(=O)N1[C@@H](C(=O)NC)c1ccc(C)nc1 , what is it?
4

[I] CC[C@H](C)[C@@H]1C(=O)N[C@H](C2Cc3ccccc3C2)C(=O)N1[C@@H](C(=O)N(C)C)c1ccc(C)nc1C
[II] CC[C@H](C)[C@@H]1C(=O)N[C@H](C2Cc3ccccc3C2)C(=O)N1[C@@H](C(=O)N1CCOCC1)c1coc(C)n1
Field: lower recorded bioavailability (choose I or II ) Use the label to indicate which entry you chose.
I

====

assay: Clearance in rat at 5 mg/kg; assay type: ADME, organism-based; set-up: dose 5 mg/kg; conditions: in vivo
MEASURED METRIC: clearance (mL/min/kg)

Entry under review: CCC(CC)[C@@H]1C(=O)N[C@H](C2Cc3ccccc3C2)C(=O)N1[C@@H](C(=O)N1CCOCC1)c1ccc(C)nc1 . Reported clearance?
23

Next compound: CCC(CC)[C@@H]1C(=O)N[C@H](C2Cc3ccccc3C2)C(=O)N1[C@@H](C(=O)N1CCOCC1)c1ccc(C)nc1C
15

Can you check CC[C@@H](C)[C@@H]1C(=O)N[C@H](C2Cc3ccccc3C2)C(=O)N1[C@@H](C(=O)N(C)C)c1ccc(C)nc1 next?
23

// same read-out, input: Cc1ccc([C@H](C(=O)N2CCOCC2)N2C(=O)[C@@H](C3Cc4ccccc4C3)NC(=O)[C@H]2CC(C)(C)C)cn1
20

====

experiment: Aqueous solubility of the compound by HPLC analysis; type: physicochemical
MEASURED METRIC: solubility (µg/mL)

So what does the record say about solubility for CC[C@H](C)[C@@H]1C(=O)N[C@H](C2Cc3ccccc3C2)C(=O)N1[C@@H](C(=O)N1CCOCC1)c1ccc(C)nc1C [EPELSIBAN] ?
232

Follow-up entry: Cc1ccc([C@H](C(=O)N2CCCC2)N2C(=O)[C@@H](C3Cc4ccccc4C3)NC(=O)[C@H]2CC(C)C)cn1
241

One more compound: CC(C)C[C@@H]1C(=O)N[C@H](C2Cc3ccccc3C2)C(=O)N1[C@@H](C(=O)N1CCOCC1)c1ccc(N(C)C)nc1
235

Try the compound CC(C)C[C@@H]1C(=O)N[C@H](C2Cc3ccccc3C2)C(=O)N1[C@@H](C(=O)N(C)C)c1ccc(N(C)C)nc1
233

Param item: COc1ccc([C@H](C(=O)N(C)C)N2C(=O)[C@@H](C3Cc4ccccc4C3)NC(=O)[C@H]2CC(C)C)cn1
216

Now consider COc1ccc([C@H](C(=O)N2CCOCC2)N2C(=O)[C@@H](C3Cc4ccccc4C3)NC(=O)[C@H]2CC(C)C)cn1 and answer again.
249

// same read-out, input: Cc1ccc([C@H](C(=O)N(C)C)N2C(=O)[C@@H](C3Cc4ccccc4C3)NC(=O)[C@H]2CC2CC2)cn1
230

====

biological target: serum albumin (Homo sapiens, UniProt P02768); assay: Binding affinity to human serum albumin; format: ADME; conditions: read-out: PB (converted)
Sequence (P02768 whole entry): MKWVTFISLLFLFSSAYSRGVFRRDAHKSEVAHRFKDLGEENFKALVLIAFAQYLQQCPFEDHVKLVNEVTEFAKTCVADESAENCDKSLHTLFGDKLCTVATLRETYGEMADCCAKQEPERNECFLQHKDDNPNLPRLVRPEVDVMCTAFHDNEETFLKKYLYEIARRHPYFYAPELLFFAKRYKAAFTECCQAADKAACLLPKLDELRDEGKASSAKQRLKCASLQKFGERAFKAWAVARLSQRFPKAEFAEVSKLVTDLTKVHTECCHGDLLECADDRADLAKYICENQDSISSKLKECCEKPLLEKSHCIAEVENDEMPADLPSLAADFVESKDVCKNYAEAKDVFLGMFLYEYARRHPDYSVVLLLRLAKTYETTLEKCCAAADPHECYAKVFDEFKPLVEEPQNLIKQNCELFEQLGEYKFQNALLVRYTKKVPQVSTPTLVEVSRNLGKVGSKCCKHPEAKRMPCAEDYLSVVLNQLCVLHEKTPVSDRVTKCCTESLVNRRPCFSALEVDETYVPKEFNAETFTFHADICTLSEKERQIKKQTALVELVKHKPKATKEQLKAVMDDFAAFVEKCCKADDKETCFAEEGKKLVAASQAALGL
MEASURED METRIC: fraction unbound

# count of solved cases: 2
// fraction unbound lookup, key: CC(C)C[C@@H]1C(=O)N[C@H](C2Cc3ccccc3C2)C(=O)N1[C@@H](C(=O)N1CCOCC1)c1ccc(N(C)C)nc1
0.3

Another: COc1ccc([C@H](C(=O)N2CCOCC2)N2C(=O)[C@@H](C3Cc4ccccc4C3)NC(=O)[C@H]2CC(C)C)cn1
0.24

[I] CC(C)C[C@@H]1C(=O)N[C@H](C2Cc3ccccc3C2)C(=O)N1[C@@H](C(=O)N(C)C)c1ccc(=O)[nH]c1
[II] CC(C)C[C@@H]1C(=O)N[C@H](C2Cc3ccccc3C2)C(=O)N1[C@@H](C(=O)N(C)C)c1ccc(N(C)C)nc1
// pick min by fraction unbound: I , II Please reply using the label of the selected record.
II

[I] CC(C)C[C@@H]1C(=O)N[C@H](C2Cc3ccccc3C2)C(=O)N1[C@@H](C(=O)N(C)C)c1ccc(F)cc1F
[II] Cc1ccc([C@H](C(=O)N(C)C)N2C(=O)[C@@H](C3Cc4ccccc4C3)NC(=O)[C@H]2CC(C)C)cn1
Between I and II , whose recorded fraction unbound is greater? Response format: the label of the selected entry.
II
(II: 0.17, I: 0.06)

====

assay: Lipophilicity, log D of the compound at pH 7.4; format: physicochemical; conditions: buffer
MEASURED METRIC: logD
Number, no unit, nothing else.

Quick one: logD for CC[C@H](C)[C@@H]1C(=O)N[C@H](C2Cc3ccccc3C2)C(=O)N1[C@@H](C(=O)N1CCOCC1)c1ccc(C)nc1C ?
2.55

====

Target: Oxytocin receptor (Homo sapiens, UniProt P30559)
Sequence (P30559 whole entry): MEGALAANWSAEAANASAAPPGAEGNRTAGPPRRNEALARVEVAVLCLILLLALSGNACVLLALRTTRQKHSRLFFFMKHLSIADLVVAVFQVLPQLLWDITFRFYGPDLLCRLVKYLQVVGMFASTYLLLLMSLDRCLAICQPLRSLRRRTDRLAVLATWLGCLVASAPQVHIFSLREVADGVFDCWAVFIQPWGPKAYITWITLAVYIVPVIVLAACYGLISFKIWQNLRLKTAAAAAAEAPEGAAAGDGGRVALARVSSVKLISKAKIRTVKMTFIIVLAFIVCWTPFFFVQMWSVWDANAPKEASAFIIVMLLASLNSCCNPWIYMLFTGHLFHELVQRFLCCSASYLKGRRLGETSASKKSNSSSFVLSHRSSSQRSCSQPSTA
Assay: Antagonist activity at human oxytocin receptor assessed as inhibition of oxytocin binding by FLIPR analysis
MEASURED METRIC: Ki (nM)

Consider the reported Ki for these compounds:
Lookup: Ki / Oxytocin receptor (Homo sapiens, UniProt P30559) / CC(C)C[C@@H]1C(=O)N[C@H](C2Cc3ccccc3C2)C(=O)N1[C@@H](C(=O)NC(C)C)c1ccccc1Cl
3.98

CC(C)C[C@@H]1C(=O)N[C@H](C2Cc3ccccc3C2)C(=O)N1[C@@H](C(=O)NC(C)C)c1ccccc1OC(F)(F)F ?
39.8

Thanks! And CC(C)C[C@@H]1C(=O)N[C@H](C2Cc3ccccc3C2)C(=O)N1[C@@H](C(=O)NC(C)C)c1ccccc1C(F)(F)F ?
31.6

Another compound to look at: CC(C)C[C@@H]1C(=O)N[C@H](C2Cc3ccccc3C2)C(=O)N1[C@@H](C(=O)NC(C)C)c1ccccc1-c1ccccc1
39.8

[A] COc1ccccc1[C@H](C(=O)NC(C)C)N1C(=O)[C@@H](C2Cc3ccccc3C2)NC(=O)[C@H]1CC(C)C
[B] COC(=O)c1ccccc1[C@@H](C(=O)NC(C)C)N1C(=O)[C@@H](C2Cc3ccccc3C2)NC(=O)[C@H]1CC(C)C
[C] CCc1ccccc1[C@H](C(=O)NC(C)C)N1C(=O)[C@@H](C2Cc3ccccc3C2)NC(=O)[C@H]1CC(C)C
[D] Cc1ccccc1[C@H](C(=O)NC(C)C)N1C(=O)[C@@H](C2Cc3ccccc3C2)NC(=O)[C@H]1CC(C)C
Ascending sort, Ki. Put the labels in the requested order and list them out.
D, C, A, B
